# Assay notes: Rat telemetry protocol, core body temperature
# Assay type: in vivo
# Measurement parameters: core body temperature of rats one hour post dosing, 100 μmol/kg p.o., relative to vehicle
So basically: Δ Temp (° C.) at 0 °C or higher? That is YES. Lower than 0 °C? That is NO.

Worked set:
# Smiles repr, Answer label
rows = [
    ("Cc1cc2c(NC(=O)N[C@@H]3CCOc4c(OC(F)(F)F)cccc43)cccc2cn1", "NO"),
    ("O=C(Nc1cccc2[nH]ncc12)N[C@@H]1CC2(CCC2)Oc2ccc(F)cc21", "YES"),
    ("CCCC1(CCC)C[C@@H](NC(=O)Nc2cccc3c2cnn3C)c2cc(F)ccc2O1", "YES"),
    ("CCC1(CC)C[C@@H](NC(=O)Nc2cccc3c(C)nccc23)c2cc(F)ccc2O1", "NO"),
    ("Cc1cc2c(NC(=O)N[C@@H]3CC(CF)(CF)Oc4c(Cl)cccc43)cccc2cn1", "NO"),
    ("CCCC1(CCC)C[C@@H](NC(=O)Nc2cccc3cnc(C)cc23)c2cccc(F)c2O1", "YES"),
    ("CC1(C)C[C@@H](NC(=O)Nc2cccc3cnc(N)cc23)c2ccc(F)cc2O1", "YES"),
    ("CC1(C)C[C@@H](NC(=O)Nc2cccc3cnccc23)c2cc(F)ccc2O1", "NO"),
    ("Cc1cc2c(NC(=O)N[C@@H]3CC(CF)(CF)Oc4c(OC(F)(F)F)cccc43)cccc2cn1", "NO"),
    ("CCC1(CC)C[C@@H](NC(=O)Nc2cccc3c2cnn3C)c2cccc(F)c2O1", "YES"),
]

Exam item: decide whether the reported Δ Temp (° C.) for Cc1cc2c(NC(=O)N[C@@H]3CC(CF)(CF)Oc4c(F)cc(F)cc43)cccc2cn1 is at least 0 °C.
NO

State whether the measured Δ Temp (° C.) reaches 0 °C, counting equality as reaching it, for CCC1(CC)C[C@@H](NC(=O)Nc2cccc3[nH]ncc23)c2cc(F)ccc2O1
YES

Does the reported Δ Temp (° C.) for CCC1(CC)C[C@@H](NC(=O)Nc2cccc3c2cnn3C)c2cc(F)ccc2O1 fall at or above the 0 °C mark?
YES

Answer whether Δ Temp (° C.) of CCCC1(CCC)C[C@@H](NC(=O)Nc2cccc3c2cnn3C)c2cccc(F)c2O1 is greater than or equal to 0 °C.
NO

---

# System under test: human TRPV1 receptor (hTRPV1) (Homo sapiens, UniProt Q8NER1)
# Sequence (Q8NER1 whole entry): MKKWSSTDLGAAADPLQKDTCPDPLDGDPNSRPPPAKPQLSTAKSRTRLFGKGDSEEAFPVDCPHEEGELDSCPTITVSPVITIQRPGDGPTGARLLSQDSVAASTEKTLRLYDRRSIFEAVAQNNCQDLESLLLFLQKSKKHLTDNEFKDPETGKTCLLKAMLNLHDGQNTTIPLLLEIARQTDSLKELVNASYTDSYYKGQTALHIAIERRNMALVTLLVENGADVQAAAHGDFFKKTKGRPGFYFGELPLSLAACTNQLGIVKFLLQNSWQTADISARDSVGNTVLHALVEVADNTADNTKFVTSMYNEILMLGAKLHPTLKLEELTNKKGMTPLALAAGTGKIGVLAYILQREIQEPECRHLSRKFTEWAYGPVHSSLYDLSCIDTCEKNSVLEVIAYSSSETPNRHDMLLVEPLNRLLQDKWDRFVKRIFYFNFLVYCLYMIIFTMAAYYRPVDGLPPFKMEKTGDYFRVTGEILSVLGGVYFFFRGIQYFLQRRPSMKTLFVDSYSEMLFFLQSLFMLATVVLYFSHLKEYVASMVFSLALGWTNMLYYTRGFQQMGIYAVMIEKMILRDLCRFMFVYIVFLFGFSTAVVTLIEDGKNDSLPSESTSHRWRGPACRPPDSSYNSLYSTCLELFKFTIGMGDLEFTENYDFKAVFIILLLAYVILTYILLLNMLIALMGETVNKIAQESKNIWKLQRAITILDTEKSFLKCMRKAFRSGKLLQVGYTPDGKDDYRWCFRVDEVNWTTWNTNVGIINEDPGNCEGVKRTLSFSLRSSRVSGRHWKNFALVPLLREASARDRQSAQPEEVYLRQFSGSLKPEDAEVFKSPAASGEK
# Assay notes: Capsaicin activation assay (Ca2+ influx, FLIPR)
# Measurement parameters: hTRPV1 in 1321N1 cells, 0.05 μM capsaicin
I'd appreciate it if you marked entries yes (1) when IC50 is lower than 20 nM and no (0) when it is not.

// below: answered compounds
# Compound, Answer label
records = [
    ("CCCC1(CCC)C[C@@H](NC(=O)Nc2cccc3cnc(C)cc23)c2cccc(F)c2O1", "yes (1)"),
    ("CC1(C)C[C@@H](NC(=O)Nc2cccc3cnccc23)c2cc(F)ccc2O1", "no (0)"),
    ("Cn1ncc2c(NC(=O)N[C@@H]3CC(CF)(CF)Oc4c(OC(F)(F)F)cccc43)cccc21", "yes (1)"),
]

Given Cc1cc2c(NC(=O)N[C@@H]3CCOc4c(OC(F)(F)F)cccc43)cccc2cn1 , is recorded IC50 strictly lower than 20 nM?
yes (1)

State whether 20 nM exceeds IC50 recorded for Cc1cc2c(NC(=O)N[C@@H]3C[C@@](C)(CF)Oc4cc(Cl)ccc43)cccc2cn1 (single isomer, unassigned) .
no (0)

# TODO verify IC50 < 20 nM strictly for this compound: O=C(Nc1cccc2[nH]ncc12)N[C@@H]1CCOc2c(OC(F)(F)F)cccc21
yes (1)

Take the compound Cc1cc2c(NC(=O)N[C@@H]3CC(CF)(CF)Oc4c(F)cc(F)cc43)cccc2cn1 and say whether its IC50 is less than 20 nM.
no (0)

Dear colleague, could you confirm whether IC50 of Cc1cc2c(NC(=O)N[C@@H]3CC(C)(C)Oc4c3ccc(F)c4F)cccc2cn1 falls below 20 nM? Thanks.
yes (1)
